B1: Zinc finger MYM-type protein 3, residues 405 to 444; numbered along this chain, Q14202 (parent)
chain: DATRCSICQKTGEVLHEVSNGSVVHRLCSDSCFSKFRANK

Variants of: B1
Assay: abundance fitness (aPCA) (normalised: wild type 0, dead -1); higher = more abundant; growth selection in yeast, the domain comes from the species named
Details: Homo sapiens
Short version: abundance fitness at least -0.2 is y, less is n.

# check: abundance fitness of "T11Q" is greater than or equal to -0.2 y

# check: abundance fitness of "R26P" is greater than or equal to -0.2 y

# check: abundance fitness of "A2V" is greater than or equal to -0.2 n

# check: abundance fitness of "C8T" is greater than or equal to -0.2 n

# check: abundance fitness of "C5W" is greater than or equal to -0.2 n

# check: abundance fitness of "T3N" is greater than or equal to -0.2 y

# check: abundance fitness of "E17G" is greater than or equal to -0.2 n

# check: abundance fitness of "V14K" is greater than or equal to -0.2 n

# check: abundance fitness of "S6F" is greater than or equal to -0.2 y

# check: abundance fitness of "V23T" is greater than or equal to -0.2 y

# check: abundance fitness of "D1E" is greater than or equal to -0.2 y

# check: abundance fitness of "E17R" is greater than or equal to -0.2 n

# check: abundance fitness of "N20E" is greater than or equal to -0.2 y

# check: abundance fitness of "D1F" is greater than or equal to -0.2 n

# check: abundance fitness of "F36R" is greater than or equal to -0.2 n

# check: abundance fitness of "S31V" is greater than or equal to -0.2 y

# check: abundance fitness of "G12N" is greater than or equal to -0.2 n

# check: abundance fitness of "K10D" is greater than or equal to -0.2 n

# check: abundance fitness of "T11P" is greater than or equal to -0.2 n

# check: abundance fitness of "C8V" is greater than or equal to -0.2 n

# check: abundance fitness of "S6L" is greater than or equal to -0.2 n

# check: abundance fitness of "C32I" is greater than or equal to -0.2 n
